- System: CDKL2
- conditions: concentration: 1 μM, replicates: in singlicate; n = 1;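 further: KINOMEscan kinase panel screen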
Response key: TRUE means %Inh >= 30%; FALSE means %Inh < 30%.

[[record]]
compound = "c1ccc(-c2n[nH]cc2Nc2ccnc3ccccc23)nc1"
tested_on = "CDKL2"
assigned_category = "TRUE"

[[record]]
compound = "COCCOCCOc1cc2ncc3c4ccc(C#N)cc4[nH]c3c2cc1OC"
tested_on = "CDKL2"
assigned_category = "FALSE"

[[record]]
compound = "CN(c1ccc(NC(=O)Nc2cc(C(F)(F)F)ccc2F)cc1)c1ccnc(Nc2ccc(S(N)(=O)=O)cc2)n1"
tested_on = "CDKL2"
assigned_category = "TRUE"

[[record]]
compound = "COc1cc(Nc2nccc(-c3c(-c4cccc(NC(=O)c5c(F)cccc5F)c4)nn4ccccc34)n2)cc(OC)c1OC"
tested_on = "CDKL2"
assigned_category = "FALSE"

[[record]]
compound = "COc1cc2c(cc1OCCN1CCNCC1)ncc1c3ccc(C#N)cc3[nH]c21"
tested_on = "CDKL2"
assigned_category = "FALSE"

[[record]]
compound = "COc1cccc(NC(=O)NC2CCN(c3ccnc(Nc4cc(OC)c(OC)c(OC)c4)n3)C2)c1 (stereo not shown)"
tested_on = "CDKL2"
assigned_category = "TRUE"

[[record]]
compound = "Cc1ccc(F)c(C(=O)Nc2cccc(-c3nn4ccccc4c3-c3ccnc(Nc4cccc(F)c4)n3)c2)c1F"
tested_on = "CDKL2"
assigned_category = "TRUE"

[[record]]
compound = "Cl.c1ccc(-c2ccc3c(Nc4ccc5[nH]ccc5c4)ccnc3c2)nc1"
tested_on = "CDKL2"
assigned_category = "FALSE"

[[record]]
compound = "COc1ccc(Nc2nccc(N3CCC(NC(=O)Nc4cccc(OC)c4)C3)n2)cc1 (stereo not shown)"
tested_on = "CDKL2"
assigned_category = "TRUE"

[[record]]
compound = "NCCCC(NC(=O)c1cc(Br)c(-c2ccnc3[nH]ccc23)s1)c1ccccc1.O=C(O)C(F)(F)F.O=C(O)C(F)(F)F (stereo not shown)"
tested_on = "CDKL2"
assigned_category = "TRUE"

[[record]]
compound = "COc1cccc(-c2ccc3c(NC(=O)C4CC4)n[nH]c3n2)c1"
tested_on = "CDKL2"
assigned_category = "TRUE"

[[record]]
compound = "CCc1ccc(-c2ccc3c(c2)-c2c(cnn2C)S(=O)(=O)N3C)cc1"
tested_on = "CDKL2"
assigned_category = "FALSE"

[[record]]
compound = "CN1CCN(CCCNc2nccc(-c3c(-c4ccc(F)cc4)nn4cc(C(F)(F)F)ccc34)n2)CC1"
tested_on = "CDKL2"
assigned_category = "FALSE"

[[record]]
compound = "FC(F)(F)c1ccc(/C=C/c2cncnc2Nc2ccc3[nH]c(Cc4ccccc4)nc3c2)cc1"
tested_on = "CDKL2"
assigned_category = "TRUE"

[[record]]
compound = "COc1cc(Nc2nccc(N3CCC(NC(=O)c4cc5ccccc5s4)C3)n2)cc(OC)c1OC (stereo not shown)"
tested_on = "CDKL2"
assigned_category = "TRUE"

[[record]]
compound = "Cc1ccc(C(=O)Nc2ccc(Nc3ccnc4cc(-c5nccs5)ccc34)cc2O)cc1.Cl"
tested_on = "CDKL2"
assigned_category = "FALSE"

[[record]]
compound = "Cc1ccc(C)c(NC(=O)NC2CCN(c3ccnc(Nc4ccc(F)cc4)n3)C2)c1 (stereo not shown)"
tested_on = "CDKL2"
assigned_category = "TRUE"

[[record]]
compound = "CC(=O)Nc1nc2cnc(Nc3cc(NC(=O)c4cccc(C5(C#N)CC5)c4Cl)ccc3C)nc2s1"
tested_on = "CDKL2"
assigned_category = "TRUE"

[[record]]
compound = "Cc1occc1-c1ncc(OC[C@@H](N)Cc2c[nH]c3ccccc23)cc1-c1ccc2[nH]nc(C)c2c1.O=C(O)C(F)(F)F"
tested_on = "CDKL2"
assigned_category = "TRUE"

[[record]]
compound = "CSc1cccc2c(-c3ccncn3)c(-c3ccc(F)cc3)nn12"
tested_on = "CDKL2"
assigned_category = "TRUE"

[[record]]
compound = "Nc1ncnc2c1nc(-c1ccccc1)n2-c1ccccc1"
tested_on = "CDKL2"
assigned_category = "FALSE"

[[record]]
compound = "O=C(Nc1cccc(-c2nn3ccccc3c2-c2ccnc(Nc3cccc(F)c3)n2)c1)c1c(F)ccc(F)c1Cl"
tested_on = "CDKL2"
assigned_category = "FALSE"

[[record]]
compound = "O=C(Nc1n[nH]c2cc(-c3ccoc3)ccc12)C1CC1"
tested_on = "CDKL2"
assigned_category = "TRUE"

[[record]]
compound = "Nc1ncc(-c2ccc3nccc(-c4ccncc4)c3c2)cc1S(=O)(=O)N1CCOCC1"
tested_on = "CDKL2"
assigned_category = "FALSE"

[[record]]
compound = "c1ccc(Oc2ccc(Nc3ccnc4cc(-c5ccc(CNCCN6CCOCC6)o5)ccc34)cc2)nc1"
tested_on = "CDKL2"
assigned_category = "FALSE"

[[record]]
compound = "O=C(Nc1ccccc1F)NC1CCN(c2ccnc(Nc3ccc(F)cc3)n2)CC1"
tested_on = "CDKL2"
assigned_category = "FALSE"

[[record]]
compound = "CN1CCN(Cc2cccc(-c3ccc4c(Nc5ccc(Oc6ccccc6)cc5)ccnc4c3)c2)CC1"
tested_on = "CDKL2"
assigned_category = "FALSE"

[[record]]
compound = "CCCCc1nn2ncccc2c1-c1ccnc(Nc2ccc(N3CCN(C)CC3)cc2)n1"
tested_on = "CDKL2"
assigned_category = "TRUE"

[[record]]
compound = "Cn1cc(-c2ccc3c(c2)CCN3C(=O)Cc2cccc(Cl)c2)c2c(N)ncnc21"
tested_on = "CDKL2"
assigned_category = "TRUE"

[[record]]
compound = "O=C(Nc1cccc(Oc2ccc3nc(NC(=O)C4CC4)cn3n2)c1)c1ccccc1C(F)(F)F"
tested_on = "CDKL2"
assigned_category = "FALSE"

[[record]]
compound = "CN(C)Cc1ccc(-c2ccc3c(Nc4ccc(Oc5ccccn5)cc4)ccnc3c2)o1"
tested_on = "CDKL2"
assigned_category = "FALSE"

[[record]]
compound = "c1ccc(-c2cnc3nccnn23)cc1"
tested_on = "CDKL2"
assigned_category = "FALSE"


====

- Test system: CSNK1G3
- conditions: concentration: 1 μM, replicates: in singlicate; n = 1
measure: %Inh (%)

[[record]]
compound = "O=C(NC1CCN(c2ccnc(Nc3ccc(F)cc3)n2)C1)c1cc2ccccc2s1 (centres unmarked)"
measure = "%Inh"
unit_symbol = "%"
assay_value = 24

[[record]]
compound = "CNC(=O)c1ccccc1Nc1nc(Nc2ccc(N3CCOCC3)cc2)ncc1Cl.Cl"
measure = "%Inh"
unit_symbol = "%"
assay_value = 56

[[record]]
compound = "O=C(Nc1n[nH]c2nc(-c3ccc(O)cc3)ccc12)C1CC1"
measure = "%Inh"
unit_symbol = "%"
assay_value = 9

[[record]]
compound = "Cc1cccc(NC(=O)Nc2ccc(Oc3ncnc4ccn(C)c34)cc2)c1"
measure = "%Inh"
unit_symbol = "%"
assay_value = 5

[[record]]
compound = "COc1cc(Nc2nccc(-c3c(-c4cccc(NC(=O)c5c(F)cccc5F)c4)nn4ccccc34)n2)cc(OC)c1OC"
measure = "%Inh"
unit_symbol = "%"
assay_value = 25


====

- System: BUB1
- conditions: concentration: 1 μM, replicates: in singlicate; n = 1
Catalogue of %Inh readings, one per entry.
measure: %Inh (%)

[[record]]
compound = "CNC(=O)c1ccccc1Nc1nc(Nc2ccc(N3CCOCC3)cc2)ncc1Cl.Cl [GSK1576028]"
measure = "%Inh"
assay_value = 96.7

[[record]]
compound = "CC(=O)N1CCN(c2ccc(Nc3nccc(-c4sc(C(C)C)nc4-c4cccc(NS(=O)(=O)c5cccc(Cl)c5)c4)n3)cn2)CC1 [GSK1660437]"
measure = "%Inh"
assay_value = 91

[[record]]
compound = "Cc1ccc(C(=O)Nc2ccc(Nc3ccnc4cc(-c5nccs5)ccc34)cc2O)cc1.Cl [GW494702]"
measure = "%Inh"
assay_value = 35

[[record]]
compound = "CCS(=O)(=O)c1ccc(OC)c(Nc2nccc(-c3c(-c4cccc(NC(=O)c5c(F)cccc5F)c4)nn4ncccc34)n2)c1 [GSK326180]"
measure = "%Inh"
assay_value = 28

[[record]]
compound = "O=C(Nc1n[nH]c2nc(-c3ccc(O)cc3)ccc12)C1CC1 [SB-710363]"
measure = "%Inh"
assay_value = 0

[[record]]
compound = "Cl.Cl.NCC(NC(=O)c1cc(-c2ccccc2)c(-c2ccnc3[nH]ccc23)s1)c1ccccc1 (stereo not shown) [GSK1321561]"
measure = "%Inh"
assay_value = 72

[[record]]
compound = "Nc1ncc(-c2cccnc2)c2scc(-c3ccc4c(c3)CCN4C(=O)Cc3ccccc3)c12 [GSK683281]"
measure = "%Inh"
assay_value = 0

[[record]]
compound = "Cc1ccc(C)c(NC(=O)NC2CCN(c3ccnc(Nc4ccc(F)cc4)n3)C2)c1 (stereo not shown) [GSK1379720]"
measure = "%Inh"
assay_value = 49

[[record]]
compound = "O=C(Nc1ccccc1F)NC1CCN(c2ccnc(Nc3ccc(F)cc3)n2)CC1 [GSK1379800]"
measure = "%Inh"
assay_value = 63

[[record]]
compound = "NCCCC(NC(=O)c1cc(Br)c(-c2ccnc3[nH]ccc23)s1)c1ccccc1.O=C(O)C(F)(F)F.O=C(O)C(F)(F)F (stereo not shown) [GSK1287544]"
measure = "%Inh"
assay_value = 21

[[record]]
compound = "Cn1cc(-c2ccc3c(c2)CCN3C(=O)Cc2cccc(F)c2)c2c(N)ncnc21 [GSK2603358]"
measure = "%Inh"
assay_value = 52

[[record]]
compound = "Cl.Cl.NCC(C(=O)Nc1cc(Br)c(-c2ccnc3[nH]ccc23)s1)c1ccccc1 (stereo not shown) [GSK1269851]"
measure = "%Inh"
assay_value = 59

[[record]]
compound = "Cc1occc1-c1ncc(OC[C@@H](N)Cc2c[nH]c3ccccc23)cc1-c1ccc2[nH]nc(C)c2c1.O=C(O)C(F)(F)F [GSK682037]"
measure = "%Inh"
assay_value = 23

[[record]]
compound = "COc1cc2c(cc1OCCN1CCNCC1)ncc1c3ccc(C#N)cc3[nH]c21"
measure = "%Inh"
assay_value = 99

[[record]]
compound = "COc1cc(Nc2nccc(N3CCC(NC(=O)c4cc5ccccc5s4)C3)n2)cc(OC)c1OC (stereo not shown) [GSK1379760]"
measure = "%Inh"
assay_value = 26

[[record]]
compound = "Clc1ccc(-c2nn3ncccc3c2-c2ccnc(Nc3ccc4c(c3)OCCO4)n2)cc1 [GW829116]"
measure = "%Inh"
assay_value = 93.1


Values from paper PMC5540273
